- Study target: Nuclear receptor ROR-gamma (Homo sapiens, UniProt P51449)
- Sequence (P51449 whole entry): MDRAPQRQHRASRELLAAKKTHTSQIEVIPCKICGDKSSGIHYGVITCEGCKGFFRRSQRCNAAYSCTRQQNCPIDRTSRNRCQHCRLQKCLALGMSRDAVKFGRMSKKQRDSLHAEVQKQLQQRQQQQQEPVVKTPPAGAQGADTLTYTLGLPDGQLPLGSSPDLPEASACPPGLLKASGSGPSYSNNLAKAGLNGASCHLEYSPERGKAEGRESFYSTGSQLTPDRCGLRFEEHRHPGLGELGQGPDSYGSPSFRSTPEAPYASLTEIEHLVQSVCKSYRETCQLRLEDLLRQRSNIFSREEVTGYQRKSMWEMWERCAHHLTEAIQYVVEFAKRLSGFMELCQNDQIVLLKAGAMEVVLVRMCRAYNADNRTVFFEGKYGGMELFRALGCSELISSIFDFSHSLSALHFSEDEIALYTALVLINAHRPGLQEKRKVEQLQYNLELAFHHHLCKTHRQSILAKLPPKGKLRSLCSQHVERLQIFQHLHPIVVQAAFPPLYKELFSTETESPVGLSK
- Protocol description: Inverse agonist activity at RORgammat (unknown origin) expressed in human Jurkat cells assessed as inhibition of transcriptional activity after overnight incubation by human IL-17 ROR response element driven-bright-glo luciferase reporter gene assay
- Type: cell-based
Property: IC50

* CCn1c2ccccc2c2cc(NC(=O)CC(C)CC(=O)Nc3ccccc3C#N)ccc21 (racemic) | > 30 µM

* * *

# solubility kinetic per entry
- Protocol description: Kinetic solubility of the compound in second fluid of disintegration test of the Japanese Pharmacopoeia at pH 6.8 by HPLC analysis
Property: solubility kinetic (µg/mL)

* CCn1ccc2cc(NC(=O)CC(C)CC(=O)Nc3ccc(C#N)c(Cl)c3)ccc21 (racemic) | 0.1
* CCn1c2c(c3cc(NC(=O)CC(C)CC(=O)Nc4ccc(C#N)cc4)ccc31)CCCC2 (racemic) | 0.06
* CCn1c(=O)c2cc(NC(=O)CC(C)CC(=O)Nc3ccc(C#N)c(Cl)c3)ccc2n(CC)c1=O (racemic) | 42
* CCn1c2ccccc2c2cc(NC(=O)CC(C)CC(=O)Nc3ccc(C#N)c(Cl)c3)ccc21 (racemic) | 0.15

* * *

Listed here are molecules together with their documented solubility kinetic.
- Protocol description: Kinetic solubility of the compound in second fluid of disintegration test of the Japanese Pharmacopoeia at pH 6.8 by HPLC analysis
Property: solubility kinetic (µg/mL)

• CCN1C(=O)C(C)Oc2cc(NC(=O)CC(C)CC(=O)Nc3ccc(C#N)c(Cl)c3)ccc21 (racemic) = 23
• CCn1c(=O)oc2cc(NC(=O)CC(C)CC(=O)Nc3ccc(C#N)c(Cl)c3)ccc21 (racemic) = 0.9
• CC(CC(=O)Nc1ccc(C#N)cc1)CC(=O)Nc1ccc2[nH]c3c(c2c1)CCCC3 (racemic) = 0.19
• CCC1Oc2cc(NC(=O)CC(C)CC(=O)Nc3ccc(C#N)c(Cl)c3)ccc2N(CC)C1=O (racemic) = 5.6
• CCN1C(=O)COc2cc(NC(=O)CC(C)CC(=O)Nc3ccc(C#N)c(Cl)c3)ccc21 (racemic) = 12

* * *

- Study target: Nuclear receptor ROR-gamma (Homo sapiens, UniProt P51449)
- Protocol description: Displacement of BODIPY-labeled-(R)-N-(2-(3,5-difluoro-4-(trimethylsilyl)phenylamino)-1-(4-(methoxymethyl)phenyl)-2-oxoethyl)-5-(2-((1-(difluoroboryl)-3,5-dimethyl-1H-pyrrol-2-yl)methylene)-2H-pyrrol-5-yl)pentanamide from human His-tagged RORgammat after 20 mins by TR-FRET assay
pIC50: −log10 of the molar value.
Property: pIC50

- CCn1c2ccccc2c2cc(NC(=O)CC(C)CC(=O)Nc3ccccc3C#N)ccc21 (racemic): < 5.00

* * *

- Protocol description: Oral bioavailability in rat at 1 mg/kg
- Type: ADME, organism-based
- Measurement parameters: in vivo
Property: bioavailability (%)

- CCn1c(=O)c2cc(NC(=O)CC(C)CC(=O)Nc3ccc(C#N)c(Cl)c3)ccc2n(CC)c1=O (racemic): 6.2
- CCn1c(=O)n(CC2CC2)c(=O)c2cc(NC(=O)CC(C)CC(=O)Nc3ccc(C#N)c(Cl)c3)ccc21 (racemic): 2.7
- CC(CC(=O)Nc1ccc(C#N)c(Cl)c1)CC(=O)Nc1ccc2c(c1)c(=O)n(CC1CC1)c(=O)n2CC1CC1 (racemic): 7.1
- CCn1c(=O)c2cc(NC(=O)CC(C)CC(=O)Nc3ccc(C#N)c(Cl)c3)ccc2n(CC2CC2)c1=O (racemic): 5.5
